Tested on: MOLT-4 leukemia
ASSAY_PROCEDURE: NCI-60 one-dose screen, 48 h
MEASUREMENT_PARAMETERS: 10 µM
Method: Growth inhibition of the MOLT-4 human tumor cell line is measured as a screen for anti-cancer activity. Cells are grown in 96 well plates and exposed to the test compound for 48 hours. Compounds are tested at a single concentration, which is 10^-5 M for most compounds. The reported endpoint is percent growth (GI% or GIPRCNT), where numbers from 0 - 100% represent growth inhibition, and numbers from -100% - 0 represent cell death. For example, a value of 40 represents 60% growth inhibition. […]
This is part of a sample that, as a whole, favours compounds with a hit. Of some 83,000 tested, about 20% had one in any assay. Activity calls are given as the source filed them. The calls were made as follows: active = growth percent below 10; inactive = the rest.
Respond with a class label; see True = active, False = inactive

# COMPOUND, CATEGORY_LABEL
rows = [
    ("Cc1ccc(S(=O)(=O)Oc2ccccc2-c2ccccc2)cc1", "False"),
    ("COc1cccc2c1C(=O)c1c(O)c3c(c(O)c1C2=O)C[C@@](O)(C(=O)COC(=O)c1cccnc1)C[C@@H]3OC1CC(N)C(O)C(C)O1 (stereo partly specified)", "True"),
    ("COc1ccc(-c2cc(/C=C3\\C(=O)Nc4cc(Cl)ccc43)[nH]n2)cc1", "False"),
    ("COc1ccc(C2C=C(c3ccc(OC)c(OC)c3)N=C3SC=CN32)c(Br)c1 (stereo unspecified)", "False"),
    ("CCOC(=O)[C@@H]1[C@H](c2ccccc2)[C@H]([N+](=O)[O-])[C@H](c2cn(-c3ccccc3)nc2C)N1Cc1ccccc1", "False"),
    ("CC(C)OP(=O)(O)c1ncc(-c2ccc(C(F)(F)F)cc2)c(NC2CCCCCC2)n1", "False"),
    ("Cc1cc2cc3c(=O)[nH]c(=O)cc-3n(CC(O)C(O)C(O)CO)c2cc1C (stereo unspecified)", "False"),
    ("O=C(NCCc1nccs1)c1cnc2c(S)cccc2c1", "False"),
    ("CC(=O)CS(C)(=O)=O", "False"),
    ("CC(=O)Nc1nc(C)c(C(=O)NNC=O)s1", "False"),
]

Qu. Write down the call the test reported for this compound. Item: COc1ccc(-c2nsc3c2NC(=O)CC3c2ccc(Cl)cc2)cc1 (stereo unspecified)
Ans. False

Qu. Write down the call the test reported for this compound. Item: CCCc1c(C)nc2scc(-c3ccc(Cl)cc3)n2c1=O
Ans. False

Qu. Write down the call the test reported for this compound. Item: COc1ccc(C2=NNC(c3sc(Cl)nc3Cl)C2)cc1 (stereo unspecified)
Ans. True

----------
Here, each record is paired with measured growth data.
System: MDA-MB-231 breast
ASSAY_PROCEDURE: NCI-60 one-dose screen, 48 h (100 = growth as untreated, 0 = no growth, -100 = all killed)
MEASUREMENT_PARAMETERS: 10 µM
Compounds without any hit were thinned out: in the full panel of roughly 83,000, 20% have a hit.
The reply should contain only the number, in %.

# COMPOUND, growth / %
rows = [
    ("CCCCCCCCCCCC(=O)NCCCN(C)C", 79.1),
    ("COc1ccc(C(=O)n2nc(CC(=O)NCc3ccccc3)nc2N)cc1", 96.2),
    ("CCOC(=O)C(CCC1=NC(C)(C)CC(C)O1)C(=O)OCC (stereo not given)", 106),
    ("COc1ccc(-c2csc(NC(=O)CO[N+](=O)[O-])n2)cc1", 102),
]

Now consider the entry below.
Qu. Fill in growth for record COc1cc(/C=C2\C(=O)Nc3cc(C)c(O)cc32)cc(OC)c1OC
Ans. 39.6
